- methodDescription: Displacement of [125I]TZDM from amyloid beta 1 to 42 aggregates
Ki values by entry
observable: Ki (nM)

1. Nc1ccc(N2Cc3cc(OCCF)ccc3C2=O)cc1 | 0.61
2. CNc1ccc(N2C(=O)c3ccc(OCCF)cc3C2=O)cc1 | 0.6
3. CN(C)c1ccc(N2Cc3cc(OCCCF)ccc3C2=O)cc1 | 0.71
4. CNc1ccc(N2Cc3cc(OCCCF)ccc3C2=O)cc1 | 0.51
5. CNc1ccc(N2C(=O)c3ccc(OCCCF)cc3C2=O)cc1 | 0.78
6. Nc1ccc(N2Cc3cc(OCCCF)ccc3C2=O)cc1 | 0.4
7. CN(C)c1ccc(N2Cc3cc(OCCF)ccc3C2=O)cc1 | 0.3
